Recorded TF1/A12 Bioassay IC50 (proliferation, 20 pM hIL-4) values for a group of binders are listed next.
Target: T1, hIL-4R on cells (STAT6-transfected HEK293, TF1, TF1/A12) (human, UniProt P24394 26-825)
T1 sequence (looked up): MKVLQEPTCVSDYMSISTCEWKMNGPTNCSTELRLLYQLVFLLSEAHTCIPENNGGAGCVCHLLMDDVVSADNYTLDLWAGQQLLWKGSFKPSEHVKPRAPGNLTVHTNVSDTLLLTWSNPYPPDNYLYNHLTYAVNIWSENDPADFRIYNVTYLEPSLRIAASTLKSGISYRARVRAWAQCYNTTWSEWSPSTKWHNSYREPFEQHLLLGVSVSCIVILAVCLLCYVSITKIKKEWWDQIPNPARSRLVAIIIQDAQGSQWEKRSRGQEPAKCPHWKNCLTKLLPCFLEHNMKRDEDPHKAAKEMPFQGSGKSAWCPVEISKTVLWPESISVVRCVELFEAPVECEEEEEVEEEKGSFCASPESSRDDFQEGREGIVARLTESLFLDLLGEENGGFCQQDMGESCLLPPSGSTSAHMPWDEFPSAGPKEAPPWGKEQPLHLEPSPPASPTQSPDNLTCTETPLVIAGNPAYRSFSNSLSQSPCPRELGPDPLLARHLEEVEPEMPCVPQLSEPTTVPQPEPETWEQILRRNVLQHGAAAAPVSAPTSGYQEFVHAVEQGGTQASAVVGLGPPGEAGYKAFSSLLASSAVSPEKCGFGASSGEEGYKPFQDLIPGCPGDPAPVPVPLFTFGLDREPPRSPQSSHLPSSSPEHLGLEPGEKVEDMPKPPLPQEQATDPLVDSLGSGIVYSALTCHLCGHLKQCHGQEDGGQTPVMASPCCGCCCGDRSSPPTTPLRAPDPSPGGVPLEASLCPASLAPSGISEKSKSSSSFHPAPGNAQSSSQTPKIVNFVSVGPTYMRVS
Assay: cell-based or functional assay

Binder | Result
VX 3F7-6 (antibody, V domains shown, 395/397; 399/401 without saying which was assayed; Apparently tested with mouse constant region (anti-mouse IgG capture/detection)) VH: EVQLVESGGGLVQPGGSLRLSCAASGFTFSSFWMTWVRQAPGKGLEWVANIKQDGSEKYYVDSVKGRFTISRDNAKNSLYLQMNSLRAEDTAVYYCARDPGRTMVRGGIRYYYGMDVWGQGTTVTVSS VL: DIQMTQSPSSVSASVGDRVTISCRASQGVSSWLAWYQQKPGNAPKLLISAASSIQSGVPSRFSGSGSGTDFTLTISSLQPEDFATYYCQQANSFPLTFGGGTKVEIK | > 50 nM
VAB 3B4-10 (antibody, V domains shown, Apparently tested with mouse constant region (anti-mouse IgG capture/detection)) VH: QVHLVQSGAEVKKPGASVKVSCKASGYTFTNYGIGWVRQAPGQGLEWMGWISIYNGNTNYAQRLQGRVTMTTDTSTSTAFMDLRSLKSDDTAVYYCARGSGYNFDHWGQGTLVTVSS VL: AIQMTQSPSSLSASVGDRVTITCRASQGIRNDLGWYQQIPGKAPKLLIYAASSLQSGVPSRFSGSGSGTDFTLTISNLQPEDFAVYFCLQDNTYPYTFGQGTNLESK | > 50 nM

QUERY: Which value of TF1/A12 Bioassay IC50 (proliferation, 20 pM hIL-4) has been reported for VAB 8G10-1 (antibody, V domains shown, Apparently tested with mouse constant region (anti-mouse IgG capture/detection)) VH: QVQLVQSGPEVKKPGASVKVSCKASGYTFTNYGISWVRQAPGQGLEWMGWISVYNGNINYAQKLQGRVTMTTDTSTSTAYMDLRSLRSDDTAVYYCARGSGYDFDYWGQGTLVTVSS VL: AIQMTQSPSSLSASVGDRVTITCRASQDIRNALGWYQQKPGKAPKLLIYAASSLQSGVPSRFSGSASGTDFTLTISSLQPEDFAAYYCLQDYNYPYTFGQGTKLEIK in the records?
RESULT: > 50 nM
